Data origin, for the record: ChEMBL document CHEMBL1177718

test: Metabolic stability in dog plasma assessed as compound remaining at 1 ug/ml after 4 hrs; assay type: ADME, cell-free, Canis lupus familiaris; conditions: read-out: Stability
Recorded metric: remaining at 4 h, 1 ug/ml (%)

{"columns": ["Compound", "Experimental value"],
 "data": [
  ["CC(C)(NP(=O)(OC[C@H]1O[C@@H](n2cnc3c(=O)[nH]c(N)nc32)[C@](C)(O)[C@@H]1O)Oc1cccc2ccccc12)C(=O)OCc1ccccc1 (stereo partly drawn)", 100],
  ["CCCCOC(=O)[C@H](C)NP(=O)(OC[C@H]1O[C@@H](n2cnc3c(=O)[nH]c(N)nc32)[C@](C)(O)[C@@H]1O)Oc1cccc2ccccc12 (stereo partly drawn)", 90],
  ["CSCC[C@H](NP(=O)(OC[C@H]1O[C@@H](n2cnc3c(=O)[nH]c(N)nc32)[C@](C)(O)[C@@H]1O)Oc1cccc2ccccc12)C(=O)OC(C)C (stereo partly drawn)", 100]
]}

###

test: Metabolic stability in cynomolgus monkey liver S9 fraction assessed as compound remaining at 10 uM after 60 mins by HPLC analysis in presence of NADP; assay type: ADME, subcellular, Macaca fascicularis; conditions: read-out: Stability
Recorded metric: remaining at 1 h, 10 µM (%)

{"columns": ["Compound", "Recorded metric", "Experimental value"],
 "data": [
  ["C[C@H](NP(=O)(OC[C@H]1O[C@@H](n2cnc3c(=O)[nH]c(N)nc32)[C@](C)(O)[C@@H]1O)Oc1cccc2ccccc12)C(=O)OCC(C)(C)C (stereo partly drawn)", "remaining at 1 h, 10 µM", 16],
  ["CC[C@H](C)[C@H](NP(=O)(OC[C@H]1O[C@@H](n2cnc3c(=O)[nH]c(N)nc32)[C@](C)(O)[C@@H]1O)Oc1cccc2ccccc12)C(=O)OCc1ccccc1 (stereo partly drawn)", "remaining at 1 h, 10 µM", 0],
  ["CC(C)OC(=O)[C@H](C)NP(=O)(OC[C@H]1O[C@@H](n2cnc3c(=O)[nH]c(N)nc32)[C@](C)(O)[C@@H]1O)Oc1cccc2ccccc12 (stereo partly drawn)", "remaining at 1 h, 10 µM", 0]
]}

###

assay: Metabolic stability in mouse plasma assessed as compound remaining at 1 ug/ml after 4 hrs; assay type: ADME, cell-free; conditions: read-out: Stability
Recorded metric: remaining at 4 h, 1 ug/ml (%)

{"columns": ["Compound", "remaining at 4 h, 1 ug/ml, %"],
 "data": [
  ["CC(C)[C@@H](NP(=O)(OC[C@H]1O[C@@H](n2cnc3c(=O)[nH]c(N)nc32)[C@](C)(O)[C@@H]1O)Oc1cccc2ccccc12)C(=O)OCc1ccccc1 (stereo partly drawn)", 8]
]}

(I) CC[C@H](C)[C@H](NP(=O)(OC[C@H]1O[C@@H](n2cnc3c(=O)[nH]c(N)nc32)[C@](C)(O)[C@@H]1O)Oc1cccc2ccccc12)C(=O)OCc1ccccc1 (stereo partly drawn)
(II) CCCCOC(=O)[C@H](C)NP(=O)(OC[C@H]1O[C@@H](n2cnc3c(=O)[nH]c(N)nc32)[C@](C)(O)[C@@H]1O)Oc1cccc2ccccc12 (stereo partly drawn)
Exercise: // pick min by remaining at 4 h, 1 ug/ml: I , II Respond with the label that goes with your answer.
Key: II

###

test: Metabolic stability in rat intestine S9 fraction assessed as compound remaining at 10 uM after 60 mins by HPLC analysis in presence of NADP; type: ADME, tissue-based; conditions: read-out: Stability
Recorded metric: remaining at 1 h, 10 µM (%)

{"columns": ["Compound", "remaining at 1 h, 10 µM (%)"],
 "data": [
  ["CC(C)[C@H](NP(=O)(OC[C@H]1O[C@@H](n2cnc3c(=O)[nH]c(N)nc32)[C@](C)(O)[C@@H]1O)Oc1cccc2ccccc12)C(=O)OCc1ccccc1 (some centres undefined)", 65],
  ["C[C@H](NP(=O)(OC[C@H]1O[C@@H](n2cnc3c(=O)[nH]c(N)nc32)[C@](C)(O)[C@@H]1O)Oc1cccc2ccccc12)C(=O)OCC(C)(C)C (some centres undefined)", 57],
  ["CC(C)OC(=O)[C@H](C)NP(=O)(OC[C@H]1O[C@@H](n2cnc3c(=O)[nH]c(N)nc32)[C@](C)(O)[C@@H]1O)Oc1cccc2ccccc12 (some centres undefined)", 77],
  ["CC[C@H](C)[C@H](NP(=O)(OC[C@H]1O[C@@H](n2cnc3c(=O)[nH]c(N)nc32)[C@](C)(O)[C@@H]1O)Oc1cccc2ccccc12)C(=O)OCc1ccccc1 (some centres undefined)", 71]
]}

###

species on record: Homo sapiens; assay: Metabolic stability in human plasma assessed as compound remaining at 1 ug/ml after 30 mins
Recorded metric: remaining at 0.5 h, 1 ug/ml (%)

{"columns": ["Compound", "Measurement unit", "remaining at 0.5 h, 1 ug/ml"],
 "data": [
  ["CC(C)[C@H](NP(=O)(OC[C@H]1O[C@@H](n2cnc3c(=O)[nH]c(N)nc32)[C@](C)(O)[C@@H]1O)Oc1cccc2ccccc12)C(=O)OCc1ccccc1Cl (some centres not stated)", "%", 77],
  ["CC(C)[C@H](NP(=O)(OC[C@H]1O[C@@H](n2cnc3c(=O)[nH]c(N)nc32)[C@](C)(O)[C@@H]1O)Oc1ccc2ccccc2c1)C(=O)OCc1ccccc1 (some centres not stated)", "%", 93],
  ["C[C@H](NP(=O)(OC[C@H]1O[C@@H](n2cnc3c(=O)[nH]c(N)nc32)[C@](C)(O)[C@@H]1O)Oc1cccc2ccccc12)C(=O)O[C@@H](C)c1ccccc1 (some centres not stated)", "%", 100],
  ["CC(C)[C@H](NP(=O)(OC[C@H]1O[C@@H](n2cnc3c(=O)[nH]c(N)nc32)[C@](C)(O)[C@@H]1O)Oc1cccc2ccccc12)C(=O)OCc1ccc(Cl)cc1 (some centres not stated)", "%", 95],
  ["CCCCCOC(=O)[C@H](C)NP(=O)(OC[C@H]1O[C@@H](n2cnc3c(=O)[nH]c(N)nc32)[C@](C)(O)[C@@H]1O)Oc1cccc2ccccc12 (some centres not stated)", "%", 100],
  ["C[C@H](NP(=O)(OC[C@H]1O[C@@H](n2cnc3c(=O)[nH]c(N)nc32)[C@](C)(O)[C@@H]1O)Oc1cccc2ccccc12)C(=O)OC1CCCCC1 (some centres not stated)", "%", 100],
  ["CC(C)(NP(=O)(OC[C@H]1O[C@@H](n2cnc3c(=O)[nH]c(N)nc32)[C@](C)(O)[C@@H]1O)Oc1cccc2ccccc12)C(=O)OCc1ccccc1 (some centres not stated)", "%", 100]
]}

###

test: Metabolic stability in rat liver S9 fraction assessed as compound remaining at 10 uM after 30 mins by HPLC analysis in presence of NADP; assay type: ADME, subcellular; conditions: read-out: Stability
Recorded metric: remaining at 0.5 h, 10 µM (%)
Give the number; % is assumed, so skip it.

Exercise: If you can, please state the reported remaining at 0.5 h, 10 µM value of C[C@H](NP(=O)(OC[C@H]1O[C@@H](n2cnc3c(=O)[nH]c(N)nc32)[C@](C)(O)[C@@H]1O)Oc1cccc2ccccc12)C(=O)OCc1ccccc1 (stereo partly specified) .
Key: 0

###

test: Metabolic stability in rat liver S9 fraction assessed as compound remaining at 10 uM after 60 mins by HPLC analysis in absence of NADP; format: ADME, subcellular; details: read-out: Stability
Recorded metric: remaining at 1 h, 10 µM (%)

(I) CC(C)OC(=O)[C@H](C)NP(=O)(OC[C@H]1O[C@@H](n2cnc3c(=O)[nH]c(N)nc32)[C@](C)(O)[C@@H]1O)Oc1cccc2ccccc12 (some centres undefined)
(II) CC[C@H](C)[C@H](NP(=O)(OC[C@H]1O[C@@H](n2cnc3c(=O)[nH]c(N)nc32)[C@](C)(O)[C@@H]1O)Oc1cccc2ccccc12)C(=O)OCc1ccccc1 (some centres undefined)
Exercise: Of I versus II , which is the one with smaller reported remaining at 1 h, 10 µM? Use the label to indicate which entry you chose.
Key: I
(I: 28%, II: 78%)

###

assay: Metabolic stability in rat intestine S9 fraction assessed as compound remaining at 10 uM after 60 mins by HPLC analysis in absence of NADP; assay type: ADME, tissue-based; details: read-out: Stability
Recorded metric: remaining at 1 h, 10 µM (%)

{"columns": ["Compound", "remaining at 1 h, 10 µM, %"],
 "data": [
  ["C[C@H](NP(=O)(OC[C@H]1O[C@@H](n2cnc3c(=O)[nH]c(N)nc32)[C@](C)(O)[C@@H]1O)Oc1cccc2ccccc12)C(=O)OCC(C)(C)C (some centres undefined)", 86],
  ["CC[C@H](C)[C@H](NP(=O)(OC[C@H]1O[C@@H](n2cnc3c(=O)[nH]c(N)nc32)[C@](C)(O)[C@@H]1O)Oc1cccc2ccccc12)C(=O)OCc1ccccc1 (some centres undefined)", 70],
  ["CC(C)[C@H](NP(=O)(OC[C@H]1O[C@@H](n2cnc3c(=O)[nH]c(N)nc32)[C@](C)(O)[C@@H]1O)Oc1cccc2ccccc12)C(=O)OCc1ccccc1 (some centres undefined)", 81],
  ["CC(C)OC(=O)[C@H](C)NP(=O)(OC[C@H]1O[C@@H](n2cnc3c(=O)[nH]c(N)nc32)[C@](C)(O)[C@@H]1O)Oc1cccc2ccccc12 (some centres undefined)", 76]
]}
